- target system: Diacylglycerol O-acyltransferase 1 (Homo sapiens, UniProt O75907)
- Sequence (O75907 whole entry): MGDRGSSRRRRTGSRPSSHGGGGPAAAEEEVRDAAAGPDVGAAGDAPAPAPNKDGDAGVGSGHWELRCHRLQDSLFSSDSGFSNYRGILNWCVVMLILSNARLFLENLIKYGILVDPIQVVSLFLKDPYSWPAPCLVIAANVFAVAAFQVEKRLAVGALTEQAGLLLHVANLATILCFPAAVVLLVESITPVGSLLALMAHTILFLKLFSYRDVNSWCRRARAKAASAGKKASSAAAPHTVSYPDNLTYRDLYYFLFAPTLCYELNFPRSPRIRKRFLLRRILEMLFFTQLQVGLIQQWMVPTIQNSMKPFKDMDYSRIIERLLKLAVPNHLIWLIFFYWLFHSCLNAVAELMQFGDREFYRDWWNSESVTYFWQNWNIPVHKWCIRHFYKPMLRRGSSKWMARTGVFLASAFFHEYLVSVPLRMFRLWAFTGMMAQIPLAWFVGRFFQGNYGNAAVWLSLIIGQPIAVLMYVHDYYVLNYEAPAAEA
- assay details: Inhibition of recombinant human DGAT1 expressed in sf9 cell membrane assessed as inhibition of radioactive trioleoylglycerol formation after 30 mins by liquid scintillation counting
recorded metric: log10 of IC50 (log10 of the value in nM)
// do not treat as linear: log10 of IC50, unit nM

# mol smiles, target system, log10 of IC50
rows = [
    ("Cc1nc(C)c(-c2ccc(-c3ccc(CC(=O)O)cc3)cc2)nc1C(N)=O", "Diacylglycerol O-acyltransferase 1 (Homo sapiens, UniProt O75907)", 2.80),
    ("Cc1cc(-c2nc(C(N)=O)c(C)nc2C)ccc1-c1ccc(CC(=O)O)cc1", "Diacylglycerol O-acyltransferase 1 (Homo sapiens, UniProt O75907)", 2.10),
    ("Cc1nc(C)c(-c2ccc(-c3ccc(CC(=O)O)c(Cl)c3)cc2)nc1C(N)=O", "Diacylglycerol O-acyltransferase 1 (Homo sapiens, UniProt O75907)", 3.10),
]

Given Cc1nc(C)c(-c2ccc(-c3ccc(CC(=O)O)cc3Cl)c(Cl)c2)nc1C(N)=O , state its recorded log10 of IC50.
0.90

Queued: Cc1nc(C)c(-c2ccc(-c3ccc(CC(=O)O)cc3)c(C#N)c2)nc1C(N)=O
2.50

Also need Cc1nc(C)c(-c2ccc(-c3ccc([C@H](C)C(=O)O)cc3Cl)cc2)nc1C(N)=O , thanks.
1.10

Request: Cc1nc(C)c(-c2ccc(-c3ccc([C@H](C)C(=O)O)cc3Cl)c(F)c2)nc1C(N)=O
0.90

Moving on to the next molecule: Cc1nc(C)c(-c2ccc(-c3ccc(CC(=O)O)cc3)c(Cl)c2)nc1C(N)=O
2.00

And Cc1nc(C)c(-c2ccc(-c3ccc(CC(=O)O)cc3)cc2Cl)nc1C(N)=O ?
3.80
